Test system: CP211
Experiment: qHTS profiling for inhibitors of Plasmodium falciparum proliferation (AID 504749); further: nearly all actives have a fitted effect of over 60% in size
Settings: P. falciparum in erythrocytes, SYBR Green DNA, 72 h; series mostly up to 28.7 µM
Method: NIH National Institute of Allergy and Infectious Diseases [NIAID] NIH Chemical Genomics Center [NCGC] […] Because mature erythrocytes lack DNA, only Plasmodium-derived DNA is detected. NCGC Assay Protocol Summary: The SYBR Green viability assay was adapted from a method described previously (Plouffe et al., 2008). […] The following morning, fluorescence intensity at 485(14) nm excitation and 535(25) nm emission wavelengths was measured on an EnVision (Perkin Elmer) plate reader. […]
Inconclusive results are not listed. The source made the active and inactive calls. The call rests on the fitted dose curve; in most records, active means well fitted inhibition curve with a large enough effect; inconclusive means small, poorly fitted or top-dose-only effect; inactive means flat fitted curve, though single readings scatter.
The categories you may choose from are t for active, f for inactive

Past entries and their recorded results:
O=C(NC(=O)c1c(F)cccc1F)Nc1cc(Cl)c(OC(F)(F)C(F)C(F)(F)F)cc1Cl (configuration not stated): f
O=c1n(Cl)c(=O)n(Cl)c(=O)n1Cl: f
Cc1c(Cl)c(=O)oc2cc(OP(=O)(OCCCl)OCCCl)ccc12: t
Cc1ncc2n1-c1ccc(Cl)cc1C(c1ccccc1F)=NC2: f
CCNc1nc(Cl)nc(NCC)n1: f

Which outcome did this test record for the compound `C[C@H]1C(=O)O[C@@H]2CCN3CC=C(COC(=O)[C@](C)(O)[C@]1(C)O)[C@H]23` ? f

Which outcome did this test record for the compound `CN(C)C(=S)SSC(=S)N(C)C` ? t

* * *

conditions: Ebola virus entry assay, ratio channel
The source made the active and inactive calls.
The categories you may choose from are active, inactive

Past entries and their recorded results:
OCc1ccccc1O: inactive
C[C@]12CCC(=O)C=C1CC[C@@H]1[C@@H]2CC[C@@]2(C)[C@H]1CC[C@]2(O)C(=O)CO: inactive
COc1ccc(-n2nc(CCC(=O)N(C)O)cc2-c2ccc(Cl)cc2)cc1: active
CN1CCC(=C2c3ccccc3CC(=O)c3sccc32)CC1: active
CCOc1cc(N)c(Cl)cc1C(=O)NCC1CN(Cc2ccc(F)cc2)CCO1 (stereo unspecified): inactive
COc1ccc(OC)c(CC(C)N)c1 (stereo unspecified): inactive
COc1ccnc2c1CCCCC2S(=O)c1nc2ccccc2[nH]1 (stereo unspecified): inactive
C[N+](C)(C)CC[N+]1(C)Cc2c(Cl)c(Cl)c(Cl)c(Cl)c2C1: inactive
c1ccc(CN(CC2=NCCN2)c2ccccc2)cc1: inactive
CCCCC1C(=O)NC(=O)N(C2CCCCC2)C1=O (stereo unspecified): inactive

Proceed to the following item.
Which outcome did this test record for the compound `CC(=O)O[C@]1(C(C)=O)CC[C@H]2[C@@H]3C=C(Cl)C4=CC(=O)CC[C@]4(C)[C@H]3CC[C@@]21C` ? active

* * *

# efficacy listing for each entry below
conditions: Ebola virus entry assay, green fluorescence channel
Entries with a potency or affinity are not part of this list.
The reply should be a number in %, with the unit left off.

Example compounds with recorded efficacy:
Cc1c(-c2ccccc2)oc2c(C(=O)OCCN3CCCCC3)cccc2c1=O: -55.6
Nc1ccc(Cl)cc1C(=O)c1ccccc1F: -39
CC1CCCCN1CCCOC(=O)c1ccc(OC2CCCCC2)cc1 (stereo not drawn): 86.1
COc1ccccc1OC(=O)Oc1ccccc1OC: -25.8
O=S(=O)(c1cccc2cnccc12)N1CCCNCC1: -11.7
CCCC(=O)O[C@]1(C(=O)CC)CC[C@H]2[C@@H]3CCC4=CC(=O)CC[C@]4(C)[C@H]3[C@@H](O)C[C@@]21C: 46.1
CC(CNC1CCCCC1)OC(=O)c1ccccc1 (stereo not drawn): 19.5
C[C@H]1C(=O)O[C@@H]2CCN3CC=C(COC(=O)[C@](C)(O)[C@]1(C)O)[C@H]23: 7.51

Provide efficacy value for the following compound: `Cc1ccc(Nc2c(F)cccc2Cl)c(CC(=O)O)c1` -7.19

Provide efficacy value for the following compound: `Clc1ccc2c(c1)CCc1cccnc1C2=C1CCNCC1` 49.7

Provide efficacy value for the following compound: `COc1ccc2c3c1O[C@H]1[C@@H](O)C=C[C@H]4[C@@H](C2)N(C)CC[C@@]341` 44

* * *

conditions: Ebola virus entry assay, green fluorescence channel
Measured potencies and affinities stand elsewhere.
# efficacy listing for each entry below
The reply should be a number in %, with the unit left off.

Example compounds with recorded efficacy:
CCN(CC)CCOc1ccc2c(c1)C(=O)c1cc(OCCN(CC)CC)ccc1-2: 9
C[C@@H](CN(C)C)CN1c2ccccc2Sc2ccccc21: 66.9
CC1CC(=O)NN=C1c1ccc(NCC(C)(C)NCC(O)COc2cc(Cl)ccc2C#N)cc1 (stereo unspecified): 42.4
CCn1c(=O)c2c(nc(C=Cc3ccc(OC)c(OC)c3)n2C)n(CC)c1=O: 44.2
CCC(CN)=C(c1ccccc1)c1ccccc1: 124
C[C@@H]1CC[C@H]2[C@@H](C)C(=O)O[C@@H]3O[C@@]4(C)CC[C@@H]1[C@]32OO4: 76.3
CN(C)CCOC(c1ccccc1)c1ccccc1: 60.8
C[N+]1(C)[C@@H]2CC[C@H]1CC(OC(=O)C(CO)c1ccccc1)C2 (stereo partly specified): 19.1
CCOC(=O)C(=O)CCc1ccccc1: -17.5
ClCCCN1CCN(c2cccc(Cl)c2)CC1: 26.2

Consider the additional compound presented here.
Provide efficacy value for the following compound: `CCCCOc1ccc(CC(=O)NO)cc1` -9.53

* * *

assay: qHTS assay for small molecule antagonists of the retinoid-related orphan receptor gamma (ROR-gamma) signaling pathway - cell viability counter screen (AID 720652); details: RORgamma reporter cell line viability counter screen; series mostly up to 92.2 µM;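 further: compound exposure lasted 16 hr before ATP read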
Inconclusive results are not listed. The source made the active and inactive calls. Calls follow the shape of the dose curve; as a rule, active = well fitted cell-killing curve with a large enough effect in the repeat runs; inconclusive = weak or mixed curves, or effect the other way; inactive = flat fitted curve, though single readings scatter.
The categories you may choose from are active, inactive

Past entries and their recorded results:
CCCCCCCCCCCC[N+](C)(C)CCOc1ccccc1: active
CN(C)C(=S)SSC(=S)N(C)C: active
CNC(=O)Oc1cccc2ccccc12: inactive

Which outcome did this test record for the compound `COP(=O)(OC)OC=C(Cl)Cl` ? inactive

* * *

system: Zika virus NS2B-NS3 protease; test: Primary screen GU AMC qHTS for Zika virus inhibitors (AID 1347154); conditions: Zika NS2B-NS3 unlinked protease, AMC fluorogenic substrate; series mostly up to 54.1 µM;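 further: 0% = no-inhibitor control and -100% = no-enzyme control; nearly all actives have a fitted effect of over 70% in size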
Inconclusive results are not listed. Activity calls are given as the source filed them. Calls come from the whole dose curve; as a rule, active = well fitted inhibition curve with a large enough effect; inconclusive = small, poorly fitted or top-dose-only effect; inactive = flat fitted curve, though single readings scatter.
The categories you may choose from are active, inactive

Past entries and their recorded results:
CC[C@]1(O)CC[C@H]2[C@@H]3CCC4=CCCC[C@@H]4[C@H]3CC[C@@]21C: inactive
CC(CC(C#N)(c1ccccc1)c1ccccc1)N(C)C (centres undefined): inactive
CN(C)CCc1c[nH]c2cccc(O)c12: inactive
O=C(CCCN1CCC(n2c(=O)[nH]c3ccccc32)CC1)c1ccc(F)cc1: inactive

Which outcome did this test record for the compound `CC(=O)OC1(c2ccccc2)CCN(CCc2ccccc2)CC1` ? inactive

Which outcome did this test record for the compound CC1N=C(N)OC1c1ccccc1 (centres undefined) ? inactive

Which outcome did this test record for the compound CC1Sc2c(C(=O)O)c(=O)c3cc(F)c(N4CCNCC4)cc3n21 (centres undefined) ? inactive

Which outcome did this test record for the compound `C[N+]1(CCC(C(N)=O)(c2ccccc2)c2ccccc2)CCCCC1` ? inactive

Which outcome did this test record for the compound `CCC(=O)OC1(c2ccccc2)CCN(C)CC1` ? inactive

Which outcome did this test record for the compound `OC(c1ccccc1)(c1ccccc1)C1CCNCC1` ? inactive

Which outcome did this test record for the compound `COc1cc(C[C@@H](C)N)c(OC)cc1C` ? inactive

Which outcome did this test record for the compound CC(C)NCC(O)c1ccc(N)c(C#N)c1 (centres undefined) ? inactive

Which outcome did this test record for the compound COc1cc(CC(C)N)cc2c1OCO2 (centres undefined) ? inactive

* * *

test: Confirmatory qHTS for small molecule stabilizers of the endoplasmic reticulum resident proteome: Secreted ER Calcium Modulated Protein (SERCaMP) assay (AID 1508628); conditions: SERCaMP secreted luciferase ER calcium/proteostasis reporter; series mostly up to 76.3 µM; further: nearly all actives have a fitted effect of over 40% in size
Records with an inconclusive call do not appear. Active and inactive are the calls of the source. The call rests on the fitted dose curve; in most records, active means well fitted inhibition curve with a large enough effect; inconclusive means small, poorly fitted or top-dose-only effect; inactive means no such curve, though single readings can be large or run the other way.
The categories you may choose from are TRUE for active, FALSE for inactive

C[C@@H]1C[C@@H]([C@H](O)CC2CC(=O)NC(=O)C2)C(=O)[C@@H](C)C1: TRUE
OC(c1ccccc1)(c1ccccc1)C1CCNCC1: TRUE
Oc1ccc2[nH]cc(CCCCN3CC=C(c4ccccc4)CC3)c2c1: TRUE
NC(=O)OCCCc1ccccc1: FALSE
c1cc2c(c(N3CCNCC3)c1)OCCO2: FALSE

Which outcome did this test record for the molecule `CC(C)=CCN1CC[C@@]2(C)c3cc(O)ccc3C[C@@H]1[C@@H]2C` ? TRUE

* * *

assay: qHTS of pediatric cancer cell lines to identify multiple opportunities for drug repurposing: Primary screen for MG 63 (6-TG R) cells (AID 1347105); settings: MG 63 (6-TG R) viability, CellTiter-Glo, 48 h; series mostly up to 46 µM; further: nearly all actives have a fitted effect of over 50% in size
Results filed as inconclusive are left out. Calls of active or inactive are those of the source. The call rests on the fitted dose curve; in most records, active means well fitted cell-killing curve with a large enough effect; inconclusive means small, poorly fitted or top-dose-only effect; inactive means no such curve, though single readings can be large or run the other way.
The categories you may choose from are y (active), n (inactive)

CCOC(=O)NC(O)C(Cl)(Cl)Cl (stereo unspecified): n
COP(=O)(OC)OC=C(Cl)Cl: n
CC(C)C(Br)C(=O)NC(N)=O (stereo unspecified): n
C1CN2CCC1CC2: n
CN(C)CCc1c[nH]c2cccc(O)c12: n

Which outcome did this test record for the compound `COc1ccc(C(=O)N2CCCC2=O)cc1` ? n

Which outcome did this test record for the compound `COP(=S)(OC)Oc1ccc(Sc2ccc(OP(=S)(OC)OC)cc2)cc1` ? n

Which outcome did this test record for the compound `Cc1ccc(N=CN(C)C=Nc2ccc(C)cc2C)c(C)c1` ? n

Which outcome did this test record for the compound C[C@@H]1CN(C2CCC(C#N)(c3ccc(F)cc3)CC2)CC[C@]1(C(=O)O)c1ccccc1 (stereo partly specified) ? n

Which outcome did this test record for the compound CC1COC2(c3ccccc3Cl)c3cc(Cl)ccc3NC(=O)CN12 (stereo unspecified) ? n

Which outcome did this test record for the compound `NC(=O)OCCCc1ccccc1` ? n

Which outcome did this test record for the compound `CC(C)(C)OC(=O)c1ncn2c1[C@@H]1CCCN1C(=O)c1c(Br)cccc1-2` ? n

Which outcome did this test record for the compound `O=C(N[C@H]1N=C(c2ccccc2F)c2cccc3c2N(CC3)C1=O)c1cc2ccccc2[nH]1` ? n

Which outcome did this test record for the compound `CCOC(=O)c1ncn2c1CN(C)C(=O)c1c(I)cccc1-2` ? n

Which outcome did this test record for the compound CCC1(c2ccccc2)CCC(=O)NC1=O (stereo unspecified) ? n

Which outcome did this test record for the compound CC(Cc1ccc2c(c1)OCO2)NO (stereo unspecified) ? n

Which outcome did this test record for the compound `CCOC(=O)C1(c2ccccc2)CCN(CCc2ccc(N)cc2)CC1` ? n

Which outcome did this test record for the compound `Cc1ccc([N+](=O)[O-])[c]2c1[O][Hg]2` ? y
